biological target: NRAS WT (Homo sapiens (Human), UniProt P01111+P62937); test: Ras-Raf (BRAF RBD) disruption / FRET / MOA assay, NRAS WT; format: biochemical; conditions: read-out: IC50* NRAS WT FRET data
Sequence (P01111 whole entry): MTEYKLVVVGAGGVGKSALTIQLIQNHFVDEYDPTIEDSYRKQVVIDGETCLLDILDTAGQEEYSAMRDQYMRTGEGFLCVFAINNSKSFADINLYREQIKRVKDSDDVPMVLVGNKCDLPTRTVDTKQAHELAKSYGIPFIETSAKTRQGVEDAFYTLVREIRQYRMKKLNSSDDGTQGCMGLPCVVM
Sequence (P62937 whole entry): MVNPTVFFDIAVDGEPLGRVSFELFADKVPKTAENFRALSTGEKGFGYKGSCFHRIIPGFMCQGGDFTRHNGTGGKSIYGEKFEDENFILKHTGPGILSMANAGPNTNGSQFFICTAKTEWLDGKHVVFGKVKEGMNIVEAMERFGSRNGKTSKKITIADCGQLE
pIC50: −log10 of the molar value.
experimental_readout: pIC50

Below are worked cases with known answers.
# compound, experimental_readout, result
data = [
    ("CCn1c(-c2cccnc2[C@H](C)OC)c2c3cc(ccc31)-c1csc(n1)C[C@H](NC(=O)[C@H](C(C)C)N(C)C(=O)N1CCC3(CC1)CN(C(=O)/C=C/CF)C3)C(=O)N1CCC[C@H](N1)C(=O)OCC(C)(C)C2 (atropisomer, axis not shown) [Example A622]", "pIC50", "6.00 to 7.00"),
    ("C=CC(=O)N1CCC(F)(C(=O)N(C)[C@H](C(=O)N[C@H]2Cc3nc(cs3)-c3ccc4c(c3)c(c(-c3cccnc3[C@H](C)OC)n4CC)CC(C)(C)COC(=O)[C@@H]3CCCN(N3)C2=O)C(C)C)CC1 (atropisomer, axis not shown) [Example A700]", "pIC50", "6.00 to 7.00"),
    ("CCn1c(-c2cccnc2[C@H](C)OC)c2c3cc(ccc31)-c1csc(n1)C[C@H](NC(=O)[C@H](C(C)C)N(C)C(=O)N1CCC3(CC1)CN(C(=O)/C=C/CN1CCOCC1)C3)C(=O)N1CCC[C@H](N1)C(=O)OCC(C)(C)C2 (atropisomer, axis not shown) [Example A669]", "pIC50", "7.00 to 8.00"),
    ("CCn1c(-c2cccnc2[C@H](C)OC)c2c3cc(ccc31)-c1csc(n1)C[C@H](NC(=O)C[C@H](C)OC1CN(C(=O)C#CC(C)(C)N(C)C)C1)C(=O)N1CCC[C@H](N1)C(=O)OCC(C)(C)C2 (atropisomer, axis not shown) [Example A637]", "pIC50", "5.00 to 6.00"),
    ("C=CC(=O)N1CC[C@H](C(=O)N(C)[C@H](C(=O)N[C@H]2Cc3cc(ccn3)-c3ccc4c(c3)c(c(-c3cccnc3COC)n4CC)CC(C)(C)COC(=O)[C@@H]3CCCN(N3)C2=O)C(C)C)C1 [Example A136]", "pIC50", "< 5.00"),
    ("C=CC(=O)N1CC2(C1)OCCN2C(=O)N(C)[C@H](C(=O)N[C@H]1Cc2nc(cs2)-c2ccc3c(c2)c(c(-c2cccnc2[C@H](C)OC)n3CC)CC(C)(C)COC(=O)[C@@H]2CCCN(N2)C1=O)C(C)C (atropisomer, axis not shown) [Example A620]", "pIC50", "6.00 to 7.00"),
    ("C=CC(=O)N(C)C[C@@H]1CCN1C(=O)N(C)[C@H](C(=O)N[C@H]1Cc2nc(cs2)-c2ccc3c(c2)c(c(-c2cccnc2[C@H](C)OC)n3CC)CC(C)(C)COC(=O)[C@@H]2CCCN(N2)C1=O)C(C)C (atropisomer, axis not shown) [Example A390]", "pIC50", "5.00 to 6.00"),
]

// moving on: another record for pIC50
Ask: // lookup pIC50 for C=CC(=O)N1CC[C@H](C(=O)N(C)[C@H](C(=O)N[C@H]2Cc3cccc(c3)-c3ccc4c(c3)c(c(-c3cccnc3[C@H](C)OC)n4CC(F)(F)F)CC(C)(C)COC(=O)[C@@H]3CCCN(N3)C2=O)C(C)C)C1 (atropisomer, axis not shown) [Example A332]
Reply: 5.00 to 6.00
